Tested on: Streptococcus
assayOverview: Group A Streptococcus viability loss, dose response, counter-screen for streptokinase expression inhibitor project, luminescence, BacTiterGlo (AID 1915);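 note: potency for reduction of bacterial viability or growth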
Type: functional, organism-based
Active and inactive are the calls of the source.

compound: CC(=O)c1cccc2c1N=C(c1[nH]c3ccccc3c1O)C2=O
EC50: > 150 µM (not active)
--
compound: CCC1CCCCN1S(=O)(=O)c1ccc(NC(=O)c2nc(S(C)(=O)=O)ncc2Cl)cc1 (stereo unspecified)
EC50: 13.2 µM (active)
--
compound: Cc1cccc(C)c1OC(=O)C(c1ccccc1)c1ccccc1
EC50: > 150 µM (not active)
--
compound: Cc1cc(Oc2cnn(C(C)(C)C)c(=O)c2Cl)cc(C(C)C)c1
EC50: 12.6 µM (active)
--
compound: C=CCN1C(=O)NC(=O)/C(=C(/CC)Nc2ccc(N(C)C)cc2)C1=O
EC50: 9.73 µM (active)
--
compound: CCc1nnc(NC(=O)c2ccc(S(=O)(=O)N(C)c3ccccc3)cc2)o1
EC50: 8.72 µM (active)
--
compound: Cc1cc(NCc2ccccn2)n2nc(C)c(-c3ccc(Cl)cc3)c2n1
EC50: 6.9 µM (active)
--
compound: Nc1ccc(N=Nc2ccccc2)c2ccccc12
EC50: 9.13 µM (active)
--
compound: O=C1c2ccccc2CC1(Cc1ccccc1)Cc1ccccc1
EC50: > 150 µM (not active)
--
compound: CC(=O)N1CCN(c2ccccc2NC(=O)c2cccs2)CC1
EC50: > 150 µM (not active)
--
compound: O=C(N/N=C/c1cc(O)ccc1Br)c1cccnc1
EC50: 4.86 µM (active)

====

assayOverview: cytotoxicity toward NIH3T3 fibroblasts, dose response, counter-screen, cell-based, ATP luminescence, mouse fibroblasts (AID 2010);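 note: cells exposed to compound for about 90 hours before reading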
Assay type: functional
Active and inactive are the calls of the source.
assayEndpoint: EC50

compound: COc1cccc(C(NC(C)=O)c2ccc3cccnc3c2O)c1 (centres undefined)
assayEndpoint: EC50
valueObserved: 1.07 µM (active)
//
compound: CCC(CC)COC(=O)C(C#N)c1nc2ccccc2nc1N1CCN(CC)CC1 (centres undefined)
assayEndpoint: EC50
valueObserved: > 60 µM (not active)
//
compound: Cc1ccnc(SCC(=O)c2ccc(Br)cc2)c1C#N
assayEndpoint: EC50
valueObserved: > 30 µM (not active)
//
compound: CC1=C(n2nnc([N+](=O)[O-])n2)C(c2cccnc2)C(C#N)=C(N)O1 (centres undefined)
assayEndpoint: EC50
valueObserved: > 60 µM (inconclusive)

====

experimentalTarget: Long-chain-fatty-acid--AMP ligase FadD28 (Mycobacterium tuberculosis, UniProt P9WQ59)
Sequence (P9WQ59 whole entry): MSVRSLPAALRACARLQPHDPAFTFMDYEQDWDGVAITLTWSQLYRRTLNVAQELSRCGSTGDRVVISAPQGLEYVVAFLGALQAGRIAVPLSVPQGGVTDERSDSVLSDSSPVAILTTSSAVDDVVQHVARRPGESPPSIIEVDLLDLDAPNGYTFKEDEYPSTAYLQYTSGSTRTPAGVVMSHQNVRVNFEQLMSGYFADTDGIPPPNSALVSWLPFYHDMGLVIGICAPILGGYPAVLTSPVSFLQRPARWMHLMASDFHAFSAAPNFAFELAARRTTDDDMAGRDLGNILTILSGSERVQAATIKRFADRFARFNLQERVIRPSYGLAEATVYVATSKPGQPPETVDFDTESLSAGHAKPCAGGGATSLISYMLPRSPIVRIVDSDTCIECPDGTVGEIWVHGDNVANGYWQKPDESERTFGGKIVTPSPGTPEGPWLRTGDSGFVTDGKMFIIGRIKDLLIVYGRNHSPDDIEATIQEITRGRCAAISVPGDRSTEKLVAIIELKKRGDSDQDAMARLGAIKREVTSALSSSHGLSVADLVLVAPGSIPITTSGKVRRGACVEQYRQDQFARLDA
assayOverview: Fluorescence polarization aasay to screen for inhibitors that compete for the binding of FadD28 to a bisubstrate Measured in Biochemical System Using Plate Reader - 2147-01_Inhibitor_Dose_CherryPick_Activity.
Type: functional, Mycobacterium tuberculosis H37Rv
Activity calls are given as the source filed them.
Classes used: t = active, f = inactive

compound: Oc1ccc(Br)cc1/C=N/n1c(S)nnc1C1CCCCC1
class: t
--
compound: CCN1C(=O)C(=C/C=C/c2ccco2)C(=O)N(CC)C1=S
class: f
--
compound: CC(C)c1ccc(NC(=O)C(=O)C2C(=O)Nc3ccccc32)cc1 (centres undefined)
class: t
--
compound: O=C(O)C(c1ccccc1)N1C(=O)/C(=C\c2ccc(-c3ccccc3Cl)o2)SC1=S (centres undefined)
class: t
